Where do these numbers come from? They come from PubChem BioAssay (NCI).

System: MDA-MB-231 breast
Test: NCI tumour cell line growth inhibition, 48 h
Measured TGI by item
MEASURED_ATTRIBUTE: TGI (µM)

COMPOUND | MEASURED_ATTRIBUTE | QUALIFIER | OBSERVED
COc1ccc2c(c1)[n+](=O)c(C(=O)c1cccs1)c(C(F)(F)F)n2[O-] | TGI | = | 25.4
COc1cc(/C=C/c2ccc(C)cc2)cc(OC)c1OC | TGI | > | 100
Cc1nc2cc(F)c(F)cc2[nH]c1=O | TGI | > | 100
Cc1c(CNc2ccc(C(=O)NC(CCCNC(=O)c3ccccc3C(=O)O)C(=O)O)cc2)cnc2nc(N)nc(N)c12 (centres undefined) | TGI | > | 100
CC(C)(C)OC(=O)NC12C3C4C1C1C2C3C41NC(=O)OC(C)(C)C (centres undefined) | TGI | = | 92.1
CN(Cc1cnc2nc(N)nc(N)c2n1)c1ccc(C(=O)NC23CC4CC(CC(C4)C2)C3)cc1 | TGI | = | 39.5
O=c1c2cc(C(F)(F)F)ccc2sc2c(NCCCNCCO)nc3ccccc3c12 | TGI | = | 2.63
Cc1cc(-n2nnc(C(=O)O)c2-c2ccccc2)c2ccc(Cl)cc2n1 | TGI | > | 100
C=C1C(=O)O[C@H]2[C@H]1CC/C(COC(=O)CCCCCC(=O)OC/C1=C/CC[C@@]3(C)O[C@H]3[C@H]3OC(=O)C(=C)[C@@H]3CC1)=C\CC[C@@]1(C)O[C@@H]21 | TGI | = | 3.62

* * *

Test system: HL-60(TB) leukemia
Test: NCI tumour cell line growth inhibition, 48 h; in the data active = GI50 below about 0.43 µM; inactive = the rest
Outcome codes: active, inactive

COMPOUND | ASSAYED_TARGET | GROUP_LABEL
COc1c(C(C)=O)c(OCCCCOc2c(C(C)=O)c(OC)c3ccoc3c2OC)c(OC)c2occc12 | HL-60(TB) leukemia | inactive
Oc1c(C(Nc2ccccc2Br)c2ccccc2)ccc2cccnc12 (centres undefined) | HL-60(TB) leukemia | inactive
C=CC(=O)N1CCC(c2ccc(C(N)=O)c(-c3ccc(Oc4ccccc4)cc3)n2)CC1 | HL-60(TB) leukemia | inactive
COc1ccc(/C=C(/c2ccccc2)[N+](=O)[O-])c(OC)c1 | HL-60(TB) leukemia | inactive
C=C(C)[C@@H]1CCC=C2CC[C@]3(C)[C@H](CC[C@@H]4[C@@]5(C)CCCNC(C)(C)[C@@H]5CC[C@]43C)[C@H]21 | HL-60(TB) leukemia | inactive
Cc1ccc(/C=C(\C#N)c2cc3ccccc3n2C)cc1 | HL-60(TB) leukemia | active
COc1cc(CNc2nc3c(N)cc(C(F)(F)F)cc3nc2-c2ccccc2)cc(OC)c1OC | HL-60(TB) leukemia | inactive
CCCCCCCCCCCC1=NC(C)(C)CN1C(C)(C)CO | HL-60(TB) leukemia | inactive
[2H]C([2H])([2H])NC(=O)c1nnc(NC(=O)C2CC2)cc1Nc1cccc(-c2ncn(C)n2)c1OC | HL-60(TB) leukemia | inactive

* * *

Measured TGI by item
System: EKVX NSCLC
Assay: NCI tumour cell line growth inhibition, 48 h

MOLECULE | ASSAYED_TARGET | TGI
Cc1c(CNc2ccc(C(=O)NC(CCCNC(=O)c3ccccc3C(=O)O)C(=O)O)cc2)cnc2nc(N)nc(N)c12 (stereo unspecified) | EKVX NSCLC | > 100 µM
CCOC(=O)c1ccc(Nc2nc3ccccc3nc2-c2cccs2)cc1 | EKVX NSCLC | > 100 µM
Cc1cc(-n2nnc(C(=O)O)c2-c2ccccc2)c2ccc(Cl)cc2n1 | EKVX NSCLC | > 100 µM
COc1cc(CNc2nc3c(N)cc(C(F)(F)F)cc3nc2-c2ccccc2)cc(OC)c1OC | EKVX NSCLC | 25.6 µM
CC(C)C1CO[C@]2(C)CCC(=O)N12 (stereo partly specified) | EKVX NSCLC | > 100 µM
CCOC(=O)N1C/C(=C\c2ccccc2)C(=O)/C(=C/c2ccccc2)C1 | EKVX NSCLC | 31.8 µM
COc1ccccc1-n1c(=O)n(C)c(=O)n1C(C)(C)C | EKVX NSCLC | > 100 µM
CCCCC(SC(=S)N1CCCC1)C(=O)Nc1nc(CC(=O)OCC)cs1 (stereo unspecified) | EKVX NSCLC | > 100 µM
C=C(C)[C@@H]1CCC=C2CC[C@]3(C)[C@H](CC[C@@H]4[C@@]5(C)CCCNC(C)(C)[C@@H]5CC[C@]43C)[C@H]21 | EKVX NSCLC | 5.6 µM
CCc1cccc2c3c([nH]c12)-c1ccccc1NC(=O)C3 | EKVX NSCLC | > 100 µM
CN1C(=O)c2ccc3ccccc3c2C1=O | EKVX NSCLC | 87.2 µM
CC(=O)O[C@H]1CC[C@@]2(C)C(=CC[C@@H]3[C@@H]2CC[C@]2(C)C(=N/O)/C(=C\c4ccccc4)C[C@@H]32)C1 | EKVX NSCLC | 51.2 µM
CC(C)(C)OC(=O)[C@@H]1CCC(=O)N1C1(c2ccccc2)c2ccccc2-c2ccccc21 | EKVX NSCLC | > 100 µM
CCCCCCCCCCCC1=NC(C)(C)CN1C(C)(C)CO | EKVX NSCLC | 16.9 µM
O=c1c2c([nH]c3nccn13)CCC2 | EKVX NSCLC | > 10 µM
COc1ccc(/C=C(/c2ccccc2)[N+](=O)[O-])c(OC)c1 | EKVX NSCLC | 3.98 µM
CNc1nnc(CCCCCCCCc2nnc(NC)o2)o1 | EKVX NSCLC | > 100 µM
CC(=O)n1cc(C2CC23N=C(c2ccccc2)OC3=O)c2ccccc21 (stereo unspecified) | EKVX NSCLC | 51.1 µM
C(/C=N/NC1=NCCCCN1)=N\NC1=NCCCCN1 | EKVX NSCLC | > 100 µM
CC(C)(C)C1CCC2c3c([nH]c4ccccc34)C3C(=O)N(c4ccc(C#N)cc4)C(=O)C3C2C1 (stereo unspecified) | EKVX NSCLC | 41.2 µM
O=[N+]([O-])c1ccc(NN=C2CN3CCN(C2)c2ccccc23)c([N+](=O)[O-])c1 | EKVX NSCLC | > 100 µM
